# Target Of Assay: T1, ScPif1p (237-780) (Saccharomyces cerevisiae, UniProt P07271 237-780)
# T1 sequence: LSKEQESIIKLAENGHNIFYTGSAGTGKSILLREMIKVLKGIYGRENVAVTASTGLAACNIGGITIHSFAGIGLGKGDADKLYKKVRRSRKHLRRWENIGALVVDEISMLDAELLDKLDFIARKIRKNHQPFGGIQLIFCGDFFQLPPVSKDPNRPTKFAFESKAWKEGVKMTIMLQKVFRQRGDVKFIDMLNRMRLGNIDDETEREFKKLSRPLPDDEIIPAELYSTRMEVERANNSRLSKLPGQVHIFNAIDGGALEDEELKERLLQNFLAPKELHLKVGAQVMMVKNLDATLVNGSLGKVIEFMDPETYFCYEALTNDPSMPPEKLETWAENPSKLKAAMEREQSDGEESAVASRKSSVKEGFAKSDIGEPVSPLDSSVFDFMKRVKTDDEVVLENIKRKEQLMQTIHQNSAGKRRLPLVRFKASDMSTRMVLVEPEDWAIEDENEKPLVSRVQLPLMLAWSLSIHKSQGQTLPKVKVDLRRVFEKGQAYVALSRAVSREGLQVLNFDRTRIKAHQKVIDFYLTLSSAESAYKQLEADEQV
# Method Notes: fluorescence anisotropy
Quantity: pKd
Note on units: pKd is unitless, being -log10 of a concentration expressed in mol/L.

Ask: State the recorded pKd for this entry: CUCUGCUCGACG (ssRNA) [F-RNA12 (text: Poly(U12))]
Result: 6.79

Ask: Which pKd is reported for this binder? GTGTGTGTGGTG (ssDNA) [GR12]
Result: 7.95

Turning now to a further binder:
Ask: GET /values?readout=pKd&item= dsDNA16bp (dsDNA) DNA 1: CTCTGCTCGACGGATT DNA 2: AATCCGTCGAGCAGAG
Result: 7.09

This collection of values is drawn from paper PMC5814829.
